Hello, the source for this data is paper PMC12416549, in case you need it.

Target: T1, TNFR1 (Homo sapiens, UniProt P19438)
T1 chain: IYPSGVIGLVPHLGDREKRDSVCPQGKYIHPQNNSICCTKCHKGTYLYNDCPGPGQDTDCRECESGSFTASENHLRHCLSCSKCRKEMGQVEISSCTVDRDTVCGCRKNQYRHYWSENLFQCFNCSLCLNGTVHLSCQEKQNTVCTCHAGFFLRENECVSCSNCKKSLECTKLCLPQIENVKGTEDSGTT
Assay: yeast display SC50
Value Type: apparent Kd (screen) (nM)

L74D (designed binder) MTLQELLREEALRRAEAEAFRYALELLAEKFPEQKEYLLDLAEEIESQIRSLSGVDVEDVRKFLDKEWAWVKEDLAEHPAELAEVEAARAARLAELRAEVEAKVAA ... 3

[a] L12D (designed binder) MTLQELLREEADRRAEAEAFRYALELLAEKFPEQKEYLLDLAEEIESQIRSLSGVDVEDVRKFLDKEWAWVKELLAEHPAELAEVEAARAARLAELRAEVEAKVAA
[b] L75M (designed binder) MTLQELLREEALRRAEAEAFRYALELLAEKFPEQKEYLLDLAEEIESQIRSLSGVDVEDVRKFLDKEWAWVKELMAEHPAELAEVEAARAARLAELRAEVEAKVAA
# return whichever of a and b has the smaller apparent Kd (screen) Answer format: the label of the selected item.
a
(a: 1.05 nM, b: 1.54 nM)

[I] A17E (designed binder) MTLQELLREEALRRAEEEAFRYALELLAEKFPEQKEYLLDLAEEIESQIRSLSGVDVEDVRKFLDKEWAWVKELLAEHPAELAEVEAARAARLAELRAEVEAKVAA
[II] P79H (designed binder) MTLQELLREEALRRAEAEAFRYALELLAEKFPEQKEYLLDLAEEIESQIRSLSGVDVEDVRKFLDKEWAWVKELLAEHHAELAEVEAARAARLAELRAEVEAKVAA
[III] V55S (designed binder) MTLQELLREEALRRAEAEAFRYALELLAEKFPEQKEYLLDLAEEIESQIRSLSGSDVEDVRKFLDKEWAWVKELLAEHPAELAEVEAARAARLAELRAEVEAKVAA
# desc sort on apparent Kd (screen) across 3 binders A complete answer lists every label in the requested sequence.
III, II, I
(III: 1.86 nM, II: 0.49 nM, I: 0.229 nM)
